Assay: Animal biodistribution (in vivo, i.v. injection)
Conditions: rats, 2 min p.i.
Measured Heart/Liver Counts/Gram ratio by item
Reply with the value as a number alone.

# Heart/Liver Counts/Gram ratio lookup, item O=[N][99Tc]1([Cl])([Cl])([Cl])[N]2C=CC=c3ccc4c(c32)[N]1C=CC=4 [[^99 Tc(NO)(1,10 phen)Cl3]°] 35.14

Follow-up item: O=[N][Tc+][Cl].[C-]#[N+]C(C)(C)C.[C-]#[N+]C(C)(C)C.[C-]#[N+]C(C)(C)C.[C-]#[N+]C(C)(C)C [[^99 Tc(NO)Cl(t-BuCN)4]^+] 2.58

###

Liver, % injected dose/organ by entry:
Experiment: Animal biodistribution (in vivo, i.v. injection)
Conditions: rats, 2 min p.i.

Data request, read-out Liver, % injected dose/organ, for O=[N][99Tc]1([Cl])([Cl])([Cl])[N]2C=CC=c3ccc4c(c32)[N]1C=CC=4 [[^99 Tc(NO)(1,10 phen)Cl3]°] 0.16 % injected dose/organ

Item: O=[N][Tc+][Cl].[C-]#[N+]C(C)(C)C.[C-]#[N+]C(C)(C)C.[C-]#[N+]C(C)(C)C.[C-]#[N+]C(C)(C)C [[^99 Tc(NO)Cl(t-BuCN)4]^+] 5.82 % injected dose/organ

Let us now turn to `CP(C)CCP(C)C.CP(C)CCP(C)C.N#[O+].[99Tc+].[Cl-].[Cl-]` 15.03 % injected dose/organ

###

Test: Animal biodistribution (in vivo, i.v. injection)
Conditions: rats, 2 min p.i., blood taken as 5.8% of body weight
Known Blood, % injected dose/organ of a selection of compounds
Express it in % injected dose/organ; write the number only.

[[record]]
compound = "O=[N][99Tc-]([Cl])([Cl])([Cl])[Cl] [[^99m TcNOCl4]^-]"
observed = 20.32

[[record]]
compound = "O=[N][99Tc]1([Cl])([Cl])([Cl])[N]2C=CC=c3ccc4c(c32)[N]1C=CC=4 [[^99 Tc(NO)(1,10 phen)Cl3]°]"
observed = 3.98

[[record]]
compound = "CP(C)CCP(C)C.CP(C)CCP(C)C.N#[O+].[99Tc+].[Cl-].[Cl-]"
observed = 9.96

[[record]]
compound = "O=[N][Tc+][Cl].[C-]#[N+]C(C)(C)C.[C-]#[N+]C(C)(C)C.[C-]#[N+]C(C)(C)C.[C-]#[N+]C(C)(C)C [[^99 Tc(NO)Cl(t-BuCN)4]^+]"
observed = 0.40

[[record]]
compound = "O=[N][99Tc]([Cl])([Cl])[Cl].c1ccc(-c2ccccn2)nc1 [[^99 Tc(NO)Cl3 (Bipy)]]"
observed = 7.17


Here is another compound to look at.
For CC(=O)C=C(C)[O][99Tc-]([Cl])([Cl])([Cl])[N]=O [[^99 Tc(NO)Cl3 (acac)]^-] , what is its reported Blood, % injected dose/organ? 3.56

###

Assay: Animal biodistribution (in vivo, i.v. injection)
Settings: rats, 2 min p.i.
Below, each entry is listed alongside its reported Lung, % injected dose/organ.

Worked cases, Lung, % injected dose/organ given:
[[record]]
molecule = "O=[N][Tc+][Cl].[C-]#[N+]C(C)(C)C.[C-]#[N+]C(C)(C)C.[C-]#[N+]C(C)(C)C.[C-]#[N+]C(C)(C)C [[^99 Tc(NO)Cl(t-BuCN)4]^+]"
observed = "0.64 % injected dose/organ"

[[record]]
molecule = "O=[N][99Tc]([Cl])([Cl])[Cl].c1ccc(-c2ccccn2)nc1 [[^99 Tc(NO)Cl3 (Bipy)]]"
observed = "0.45 % injected dose/organ"

[[record]]
molecule = "CC(=O)C=C(C)[O][99Tc-]([Cl])([Cl])([Cl])[N]=O [[^99 Tc(NO)Cl3 (acac)]^-]"
observed = "0.73 % injected dose/organ"


Suppose we examine the molecule `CP(C)CCP(C)C.CP(C)CCP(C)C.N#[O+].[99Tc+].[Cl-].[Cl-]` ; what Lung, % injected dose/organ value has been reported? 1.09 % injected dose/organ

Then O=[N][99Tc]1([Cl])([Cl])([Cl])[N]2C=CC=c3ccc4c(c32)[N]1C=CC=4 [[^99 Tc(NO)(1,10 phen)Cl3]°] ? 0.67 % injected dose/organ

Next record, please: O=[N][99Tc-]([Cl])([Cl])([Cl])[Cl] [[^99m TcNOCl4]^-] 2.09 % injected dose/organ

###

Test: Animal biodistribution (in vivo, i.v. injection)
Details: rats, 60 min p.i.
property.measured: Liver + GI, % injected dose/organ
State the value, then name its unit.

[[record]]
molecule = "O=[N][99Tc-]([Cl])([Cl])([Cl])[Cl] [[^99m TcNOCl4]^-]"
property_measured = "Liver + GI, % injected dose/organ"
observed = "11.89 % injected dose/organ"

[[record]]
molecule = "CC(=O)C=C(C)[O][99Tc-]([Cl])([Cl])([Cl])[N]=O [[^99 Tc(NO)Cl3 (acac)]^-]"
property_measured = "Liver + GI, % injected dose/organ"
observed = "0.00 % injected dose/organ"

[[record]]
molecule = "O=[N][99Tc]([Cl])([Cl])[Cl].c1ccc(-c2ccccn2)nc1 [[^99 Tc(NO)Cl3 (Bipy)]]"
property_measured = "Liver + GI, % injected dose/organ"
observed = "0.00 % injected dose/organ"


Suppose we examine the molecule `CP(C)CCP(C)C.CP(C)CCP(C)C.N#[O+].[99Tc+].[Cl-].[Cl-]` ; what Liver + GI, % injected dose/organ value has been reported? 34.70 % injected dose/organ

###

Assay: Animal biodistribution (in vivo, i.v. injection)
Settings: rats, 60 min p.i.
Entries and their measured Heart/Liver Counts/Gram ratio follow.
The answer should be a number; do not append a unit.

Some solved entries appear below for comparison.
[[record]]
compound = "O=[N][99Tc-]([Cl])([Cl])([Cl])[Cl] [[^99m TcNOCl4]^-]"
property_measured = "Heart/Liver Counts/Gram ratio"
observed = 0.98

[[record]]
compound = "O=[N][99Tc]([Cl])([Cl])[Cl].c1ccc(-c2ccccn2)nc1 [[^99 Tc(NO)Cl3 (Bipy)]]"
property_measured = "Heart/Liver Counts/Gram ratio"
observed = 1.09

[[record]]
compound = "CP(C)CCP(C)C.CP(C)CCP(C)C.N#[O+].[99Tc+].[Cl-].[Cl-]"
property_measured = "Heart/Liver Counts/Gram ratio"
observed = 1.13


Requested field: Heart/Liver Counts/Gram ratio. Item: O=[N][99Tc]1([Cl])([Cl])([Cl])[N]2C=CC=c3ccc4c(c32)[N]1C=CC=4 [[^99 Tc(NO)(1,10 phen)Cl3]°] 10.63

Could you do the same for O=[N][Tc+][Cl].[C-]#[N+]C(C)(C)C.[C-]#[N+]C(C)(C)C.[C-]#[N+]C(C)(C)C.[C-]#[N+]C(C)(C)C [[^99 Tc(NO)Cl(t-BuCN)4]^+] , please? 2.97

Next compound up: CC(=O)C=C(C)[O][99Tc-]([Cl])([Cl])([Cl])[N]=O [[^99 Tc(NO)Cl3 (acac)]^-] 0.39

###

Experiment: Animal biodistribution (in vivo, i.v. injection)
Details: rats, 60 min p.i.
property.measured: Heart/Blood Counts/Gram ratio

Which measured Heart/Blood Counts/Gram ratio value corresponds to CC(=O)C=C(C)[O][99Tc-]([Cl])([Cl])([Cl])[N]=O [[^99 Tc(NO)Cl3 (acac)]^-] ? 1.76

Cool, now O=[N][99Tc]([Cl])([Cl])[Cl].c1ccc(-c2ccccn2)nc1 [[^99 Tc(NO)Cl3 (Bipy)]] 2.12

Consider next the compound `CP(C)CCP(C)C.CP(C)CCP(C)C.N#[O+].[99Tc+].[Cl-].[Cl-]` in the same way. 4.48

Another compound to check: O=[N][99Tc]1([Cl])([Cl])([Cl])[N]2C=CC=c3ccc4c(c32)[N]1C=CC=4 [[^99 Tc(NO)(1,10 phen)Cl3]°] 1.36

Likewise for O=[N][Tc+][Cl].[C-]#[N+]C(C)(C)C.[C-]#[N+]C(C)(C)C.[C-]#[N+]C(C)(C)C.[C-]#[N+]C(C)(C)C [[^99 Tc(NO)Cl(t-BuCN)4]^+] ? 8.98

And for O=[N][99Tc-]([Cl])([Cl])([Cl])[Cl] [[^99m TcNOCl4]^-] ? 0.43

###

Assay: Animal biodistribution (in vivo, i.v. injection)
Details: rats, 2 min p.i.
# Liver + GI, % injected dose/organ per record follows
Give the quantity in % injected dose/organ, number only.

Use these answered entries as a reference point.
[[record]]
compound = "O=[N][99Tc]([Cl])([Cl])[Cl].c1ccc(-c2ccccn2)nc1 [[^99 Tc(NO)Cl3 (Bipy)]]"
property_measured = "Liver + GI, % injected dose/organ"
observed = 0.00

[[record]]
compound = "O=[N][99Tc-]([Cl])([Cl])([Cl])[Cl] [[^99m TcNOCl4]^-]"
property_measured = "Liver + GI, % injected dose/organ"
observed = 13.49

[[record]]
compound = "CC(=O)C=C(C)[O][99Tc-]([Cl])([Cl])([Cl])[N]=O [[^99 Tc(NO)Cl3 (acac)]^-]"
property_measured = "Liver + GI, % injected dose/organ"
observed = 0.00


Continue with the next compound.
What does the data say about its Liver + GI, % injected dose/organ? Entry: `CP(C)CCP(C)C.CP(C)CCP(C)C.N#[O+].[99Tc+].[Cl-].[Cl-]` 26.33
